// cross-source set; read-out = IC50; system = High affinity nerve growth factor receptor (Homo sapiens)
Sequence (P04629 whole entry): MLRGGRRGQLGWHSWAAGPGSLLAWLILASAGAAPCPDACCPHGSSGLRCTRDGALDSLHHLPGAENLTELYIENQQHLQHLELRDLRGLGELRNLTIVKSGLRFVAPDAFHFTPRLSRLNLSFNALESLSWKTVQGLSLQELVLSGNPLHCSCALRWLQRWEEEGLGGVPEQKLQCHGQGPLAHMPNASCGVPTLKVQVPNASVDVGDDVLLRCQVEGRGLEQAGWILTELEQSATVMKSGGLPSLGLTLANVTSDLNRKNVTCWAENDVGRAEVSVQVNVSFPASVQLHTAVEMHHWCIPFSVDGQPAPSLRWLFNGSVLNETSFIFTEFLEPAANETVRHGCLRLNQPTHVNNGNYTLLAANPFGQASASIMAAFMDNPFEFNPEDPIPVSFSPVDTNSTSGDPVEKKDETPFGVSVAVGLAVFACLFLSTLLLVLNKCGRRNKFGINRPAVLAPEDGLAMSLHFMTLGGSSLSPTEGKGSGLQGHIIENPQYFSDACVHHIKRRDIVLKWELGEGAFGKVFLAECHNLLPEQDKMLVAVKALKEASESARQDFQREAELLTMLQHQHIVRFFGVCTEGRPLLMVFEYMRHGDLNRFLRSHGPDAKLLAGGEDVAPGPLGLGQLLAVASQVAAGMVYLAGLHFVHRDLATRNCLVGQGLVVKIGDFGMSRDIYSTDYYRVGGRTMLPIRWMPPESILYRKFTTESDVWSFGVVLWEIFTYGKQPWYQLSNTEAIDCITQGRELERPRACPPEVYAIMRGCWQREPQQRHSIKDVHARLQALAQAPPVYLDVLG

Look up IC50 of CN(C)C(=O)c1c(N)nn2ccc(N3CCC[C@@H]3c3cc(F)ccc3F)nc12 and report it.
< 0.025 µM

Look up IC50 of CCNC(=O)Nc1ccc2ncc(-c3ccc(OC)c(OC)c3)cc2n1 and report it.
> 100 µM

Look up IC50 of CC(=O)Nc1ncc(Sc2ccc(C)c(C(=O)N3CCN(C(C)=O)CC3)c2)s1 and report it.
> 5 µM

Look up IC50 of CC1(C)Oc2c(ncnc2Nc2ccc(NC(=O)Nc3cccc(F)c3)cc2)NC1=O and report it.
> 10 µM

Look up IC50 of CC(C)(C)ONC(=O)c1c(N)nn2ccc(N3CCC[C@@H]3c3cc(F)ccc3F)nc12 and report it.
< 0.001 µM

Look up IC50 of CN1CCN(C[C@@H](NC(=O)C[C@H]2CNC(=O)c3cc(-c4cccc(Cl)c4)cn32)C2CCCCC2)CC1 and report it.
> 10 µM
